# Tested on: H3255
# assay_notes: relative viability (nuclei count vs DMSO), 5 days (fraction); higher = more cells survive
# recorded_conditions: first compound 0.253 µM
So basically: is relative viability under 0.7? Then 1.0. Not under? Then 0.0.

Previously resolved entries follow.
Nc1cccc2c1CN(C1CCC(=O)NC1=O)C2=O (stereo not given) [Lenalidomide] + Nc1ncn([C@H]2C[C@H](O)[C@@H](CO)O2)c(=O)n1 [Decitabine] (partner 2 µM) ... 1.0
Nc1cccc2c1CN(C1CCC(=O)NC1=O)C2=O (stereo not given) [Lenalidomide] + N=C(N)NC(=N)NCCc1ccccc1 [Phenformin] (partner 250 µM) ... 1.0
Nc1cccc2c1CN(C1CCC(=O)NC1=O)C2=O (stereo not given) [Lenalidomide] + CCNC(=O)c1noc(-c2cc(C(C)C)c(O)cc2O)c1-c1ccc(CN2CCOCC2)cc1 [Luminespib] (partner 0.01 µM) ... 0.0

Shift focus to the following entry.
Consider the compound Nc1cccc2c1CN(C1CCC(=O)NC1=O)C2=O (stereo not given) [Lenalidomide] + C[C@@H](Oc1cc(-c2cnn(C3CCNCC3)c2)cnc1N)c1c(Cl)ccc(F)c1Cl [Crizotinib] (partner 1 µM) . Is its relative viability strictly less than 0.7?
0.0

---

# System: ABC-1
# assay_notes: relative viability (nuclei count vs DMSO), 5 days (fraction); higher = more cells survive
# recorded_conditions: first compound 0.02 µM
// reported relative viability for each item listed
// response body must contain only the number

Examples from the recorded data:
CN1CCN(CCOc2cc(OC3CCOCC3)c3c(Nc4c(Cl)ccc5c4OCO5)ncnc3c2)CC1 [Saracatinib] + Cc1nc(NC(=O)N2CCC[C@H]2C(N)=O)sc1-c1ccnc(C(C)(C)C(F)(F)F)c1 [Alpelisib] (partner 2 µM) ... 0.854
CCNC(=O)c1noc(-c2cc(C(C)C)c(O)cc2O)c1-c1ccc(CN2CCOCC2)cc1 [Luminespib] + Nc1ncn([C@H]2C[C@H](O)[C@@H](CO)O2)c(=O)n1 [Decitabine] (partner 2 µM) ... 1.16
CN1CCN(CCOc2cc(OC3CCOCC3)c3c(Nc4c(Cl)ccc5c4OCO5)ncnc3c2)CC1 [Saracatinib] + Cc1cc(Nc2cc(N3CCN(C)CC3)nc(Sc3ccc(NC(=O)C4CC4)cc3)n2)n[nH]1 [Tozasertib] (partner 0.1 µM) ... 0.157
CN1CCN(CCOc2cc(OC3CCOCC3)c3c(Nc4c(Cl)ccc5c4OCO5)ncnc3c2)CC1 [Saracatinib] + COc1cc2c(Oc3ccc(NC(=O)C4(C(=O)Nc5ccc(F)cc5)CC4)cc3F)ccnc2cc1OCCCN1CCOCC1 [Foretinib] (partner 0.25 µM) ... 1.08

From here, focus on the item given below.
Hello, I am looking for reported relative viability with ABC-1 for CCNC(=O)c1noc(-c2cc(C(C)C)c(O)cc2O)c1-c1ccc(CN2CCOCC2)cc1 [Luminespib] + COc1cc2c(Oc3ccc(NC(=O)C4(C(=O)Nc5ccc(F)cc5)CC4)cc3F)ccnc2cc1OCCCN1CCOCC1 [Foretinib] (partner 0.25 µM) . Could you help?
0.859

---

// reported relative viability for each item listed
# System: SK-MES-1
# assay_notes: relative viability (nuclei count vs DMSO), 5 days (fraction); higher = more cells survive
# recorded_conditions: first compound 0.2 µM
// response body must contain only the number

CCNC(=O)c1noc(-c2cc(C(C)C)c(O)cc2O)c1-c1ccc(CN2CCOCC2)cc1 [Luminespib] + Cc1nc(Nc2ncc(C(=O)Nc3c(C)cccc3Cl)s2)cc(N2CCN(CCO)CC2)n1 [Dasatinib] (partner 0.075 µM) ... 0.0956
CN1CCN(CCOc2cc(OC3CCOCC3)c3c(Nc4c(Cl)ccc5c4OCO5)ncnc3c2)CC1 [Saracatinib] + C[C@@H](Oc1cc(-c2cnn(C3CCNCC3)c2)cnc1N)c1c(Cl)ccc(F)c1Cl [Crizotinib] (partner 1 µM) ... 0.858

From here, focus on the item given below.
Record request: relative viability value, item CN1CCN(CCOc2cc(OC3CCOCC3)c3c(Nc4c(Cl)ccc5c4OCO5)ncnc3c2)CC1 [Saracatinib] + O=C(CCCCCCC(=O)Nc1ccccc1)NO [Vorinostat] (partner 1 µM)
1.05

---

// reported relative viability for each item listed
# System: NCI-H23
# assay_notes: relative viability (nuclei count vs DMSO), 5 days (fraction); higher = more cells survive
# recorded_conditions: first compound 0.006325 µM
// response body must contain only the number

Examples from the recorded data:
CCNC(=O)c1noc(-c2cc(C(C)C)c(O)cc2O)c1-c1ccc(CN2CCOCC2)cc1 [Luminespib] + Nc1nc2[nH]cc(CCc3ccc(C(=O)N[C@@H](CCC(=O)O)C(=O)O)cc3)c2c(=O)[nH]1 [Pemetrexed] (partner 0.2 µM) ... 0.655
CCNC(=O)c1noc(-c2cc(C(C)C)c(O)cc2O)c1-c1ccc(CN2CCOCC2)cc1 [Luminespib] + COc1cc2c(Oc3ccc(NC(=O)C4(C(=O)Nc5ccc(F)cc5)CC4)cc3F)ccnc2cc1OCCCN1CCOCC1 [Foretinib] (partner 0.25 µM) ... 1.03
CCNC(=O)c1noc(-c2cc(C(C)C)c(O)cc2O)c1-c1ccc(CN2CCOCC2)cc1 [Luminespib] + N=C(N)NC(=N)NCCc1ccccc1 [Phenformin] (partner 250 µM) ... 0.727

From here, focus on the item given below.
Record request: relative viability value, item CCNC(=O)c1noc(-c2cc(C(C)C)c(O)cc2O)c1-c1ccc(CN2CCOCC2)cc1 [Luminespib] + CS(=O)(=O)CCNCc1ccc(-c2ccc3ncnc(Nc4ccc(OCc5cccc(F)c5)c(Cl)c4)c3c2)o1 [Lapatinib] (partner 2 µM)
1.1

---

// reported relative viability for each item listed
# Tested on: NCI-H358
# assay_notes: relative viability (nuclei count vs DMSO), 5 days (fraction); higher = more cells survive
# recorded_conditions: first compound 0.1 µM
// response body must contain only the number

Examples from the recorded data:
Cc1cn(-c2cc(NC(=O)c3ccc(C)c(Nc4nccc(-c5cccnc5)n4)c3)cc(C(F)(F)F)c2)cn1 [Nilotinib] + O=C(c1cc(Cc2n[nH]c(=O)c3ccccc23)ccc1F)N1CCN(C(=O)C2CC2)CC1 [Olaparib] (partner 8 µM) ... 0.539
Cc1cn(-c2cc(NC(=O)c3ccc(C)c(Nc4nccc(-c5cccnc5)n4)c3)cc(C(F)(F)F)c2)cn1 [Nilotinib] + CC(=O)c1c(C)c2cnc(Nc3ccc(N4CCNCC4)cn3)nc2n(C2CCCC2)c1=O [Palbociclib] (partner 0.5 µM) ... 0.127
Cc1cn(-c2cc(NC(=O)c3ccc(C)c(Nc4nccc(-c5cccnc5)n4)c3)cc(C(F)(F)F)c2)cn1 [Nilotinib] + COc1cccc2cc(-c3nc([C@H]4CC[C@H](C(=O)O)CC4)n4ncnc(N)c34)[nH]c12 [OSI-027] (partner 0.5 µM) ... 0.252

Record request: relative viability value, item Cc1cn(-c2cc(NC(=O)c3ccc(C)c(Nc4nccc(-c5cccnc5)n4)c3)cc(C(F)(F)F)c2)cn1 [Nilotinib] + CS(=O)(=O)CCNCc1ccc(-c2ccc3ncnc(Nc4ccc(OCc5cccc(F)c5)c(Cl)c4)c3c2)o1 [Lapatinib] (partner 2 µM)
0.325

// repeat for Cc1cn(-c2cc(NC(=O)c3ccc(C)c(Nc4nccc(-c5cccnc5)n4)c3)cc(C(F)(F)F)c2)cn1 [Nilotinib] + Nc1nc2[nH]cc(CCc3ccc(C(=O)N[C@@H](CCC(=O)O)C(=O)O)cc3)c2c(=O)[nH]1 [Pemetrexed] (partner 0.2 µM) and report
0.152

---

# Test system: SK-LU-1
# assay_notes: relative viability (nuclei count vs DMSO), 5 days (fraction); higher = more cells survive
# recorded_conditions: first compound 2.53 µM
measure_name: relative viability
// response body must contain only the number

Examples from the recorded data:
Nc1cccc2c1CN(C1CCC(=O)NC1=O)C2=O (stereo not drawn) [Lenalidomide] + CC(=O)c1c(C)c2cnc(Nc3ccc(N4CCNCC4)cn3)nc2n(C2CCCC2)c1=O [Palbociclib] (partner 0.5 µM) ... 0.413
Nc1cccc2c1CN(C1CCC(=O)NC1=O)C2=O (stereo not drawn) [Lenalidomide] + CC(C)C[C@H](NC(=O)[C@H](Cc1ccccc1)NC(=O)c1cnccn1)B(O)O [Bortezomib] (partner 0.002 µM) ... 1.25

Record request: relative viability value, item Nc1cccc2c1CN(C1CCC(=O)NC1=O)C2=O (stereo not drawn) [Lenalidomide] + Nc1ncn([C@H]2C[C@H](O)[C@@H](CO)O2)c(=O)n1 [Decitabine] (partner 2 µM)
0.72

// repeat for Nc1cccc2c1CN(C1CCC(=O)NC1=O)C2=O (stereo not drawn) [Lenalidomide] + O=C(c1cc(Cc2n[nH]c(=O)c3ccccc23)ccc1F)N1CCN(C(=O)C2CC2)CC1 [Olaparib] (partner 8 µM) and report
0.615

---

# System: HCC-15
# assay_notes: relative viability (nuclei count vs DMSO), 5 days (fraction); higher = more cells survive
# recorded_conditions: first compound 6.325 µM
// reported relative viability for each item listed
// response body must contain only the number

Examples from the recorded data:
Cc1csc(=NC2CCCCC2)n1/N=C/c1ccc(O)c(O)c1O [MIM1] + Nc1ncn([C@H]2C[C@H](O)[C@@H](CO)O2)c(=O)n1 [Decitabine] (partner 2 µM) ... 0.341
Cc1csc(=NC2CCCCC2)n1/N=C/c1ccc(O)c(O)c1O [MIM1] + O=C(c1cc(Cc2n[nH]c(=O)c3ccccc23)ccc1F)N1CCN(C(=O)C2CC2)CC1 [Olaparib] (partner 8 µM) ... 0.39
Cc1csc(=NC2CCCCC2)n1/N=C/c1ccc(O)c(O)c1O [MIM1] + NC(=O)Nc1cc(-c2cccc(F)c2)sc1C(=O)N[C@H]1CCCNC1 [AZD7762] (partner 0.2 µM) ... 0.808
Cc1csc(=NC2CCCCC2)n1/N=C/c1ccc(O)c(O)c1O [MIM1] + COc1cccc2cc(-c3nc([C@H]4CC[C@H](C(=O)O)CC4)n4ncnc(N)c34)[nH]c12 [OSI-027] (partner 0.5 µM) ... 0.469
Cc1csc(=NC2CCCCC2)n1/N=C/c1ccc(O)c(O)c1O [MIM1] + Cc1nc(Nc2ncc(C(=O)Nc3c(C)cccc3Cl)s2)cc(N2CCN(CCO)CC2)n1 [Dasatinib] (partner 0.075 µM) ... 0.359
Cc1csc(=NC2CCCCC2)n1/N=C/c1ccc(O)c(O)c1O [MIM1] + C[C@]1(O)C[C@@H](c2nc(-c3ccc4ccc(-c5ccccc5)nc4c3)c3c(N)nccn32)C1 [Linsitinib] (partner 1 µM) ... 0.476

Record request: relative viability value, item Cc1csc(=NC2CCCCC2)n1/N=C/c1ccc(O)c(O)c1O [MIM1] + CC(C)C[C@H](NC(=O)[C@H](Cc1ccccc1)NC(=O)c1cnccn1)B(O)O [Bortezomib] (partner 0.002 µM)
0.36

// repeat for Cc1csc(=NC2CCCCC2)n1/N=C/c1ccc(O)c(O)c1O [MIM1] + CS(=O)(=O)CCNCc1ccc(-c2ccc3ncnc(Nc4ccc(OCc5cccc(F)c5)c(Cl)c4)c3c2)o1 [Lapatinib] (partner 2 µM) and report
0.415

// repeat for Cc1csc(=NC2CCCCC2)n1/N=C/c1ccc(O)c(O)c1O [MIM1] + Cc1cc(Nc2cc(N3CCN(C)CC3)nc(Sc3ccc(NC(=O)C4CC4)cc3)n2)n[nH]1 [Tozasertib] (partner 0.1 µM) and report
0.231

These data points were gathered from the supplement of paper PMC10307832.
